Tested on: cbb promoter
Assay type: cell-based, Ralstonia eutropha
Conditions: Table 12, chemoautotrophic (induced) growth
outcome measure: Chemoautotrophic β-galactosidase activity

{"molecule": "E87K/G242S (protein) MSSFLRALTLRQLQIFVTVARHASFVRAAEELHLTQPAVSMQVKQLESVVGMALFERVKGQLTLTEPGDRLLHHASRILGEVKDAEKGLQAVKDVEQGSITIGLISTSKYFAPKLLAGFTALHPGVDLRIAEGNRETLLRLLQDNAIDLALMGRPPRELDAVSEPIAAHPHVLVASPRHPLHDAKGFDLQELRHETFLLREPGSGTRTVAEYMFRDHLFTPAKVITLGSNETIKQAVMAGMSISLLSLHTLGLELRTGEIGLLDVAGTPIERIWHVAHMSSKRLSPASESCRAYLLEHTAEFLGREYGGLMPGRRVA", "reported value": "4820 nmol/min/mg of protein"}

Qu. GET /values?readout=Chemoautotrophic β-galactosidase activity&item= G125S/V265M (protein) MSSFLRALTLRQLQIFVTVARHASFVRAAEELHLTQPAVSMQVKQLESVVGMALFERVKGQLTLTEPGDRLLHHASRILGEVKDAEEGLQAVKDVEQGSITIGLISTSKYFAPKLLAGFTALHPSVDLRIAEGNRETLLRLLQDNAIDLALMGRPPRELDAVSEPIAAHPHVLVASPRHPLHDAKGFDLQELRHETFLLREPGSGTRTVAEYMFRDHLFTPAKVITLGSNETIKQAVMAGMGISLLSLHTLGLELRTGEIGLLDMAGTPIERIWHVAHMSSKRLSPASESCRAYLLEHTAEFLGREYGGLMPGRRVA
Ans. 6770 nmol/min/mg of protein
